# TEST_DETAILS: NCI Yeast Anticancer Drug Screen. Data for the rad52 strain (AID 147);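 note: 0% = growth of vehicle-treated control cultures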
# DETAILS: S. cerevisiae rad52 mutant growth inhibition; at 3.7 µM; active compounds read high
Compounds without any hit were thinned out: in the full panel of roughly 79,000, 15% have a hit.
Examples of compounds with documented growth inhibition follow.
QUANTITY_KIND: growth inhibition (%)

>>> print(df.to_string())
                                   compound      quantity_kind  observed_result
0  CCCCCCCCC/C=C/C=C/C(=O)NCC(=O)NC1C(O)C(O)C(Nc2ncnc3nc[nH]c23)OC1C(O)CO (stereo not given)  growth inhibition               11
1  O=C(NCCCNCCCNC(=O)c1cc(-c2ccccc2)nc2ccccc12)c1cc(-c2ccccc2)nc2ccccc12  growth inhibition               -2
2  CCOC(=O)c1cc(-c2ccc(Cl)cc2)c([N+](=O)[O-])n1C  growth inhibition               24
3                  CC(=O)OCc1ccc(O)c(C=O)c1  growth inhibition                1
4           COc1ccc(/C=C/C(=O)C(C)(C)Br)cc1  growth inhibition               89
5   O=[n+]1c2ccc(Cl)cc2n([O-])c2ccc(Cl)cc21  growth inhibition               12
6  CCC[CH2][Ge]([CH2]CCC)([CH2]CCC)[O]C(=O)C(OC)c1ccccc1 (stereo not given)  growth inhibition                6
7  CN(C)CCn1c2c3ccccc3ccc2c2oc(=O)c3ccccc3c21  growth inhibition               21
8  CCC(C)COC(=O)c1ccc(N=Cc2ccc(C=Nc3ccc(C(=O)OCC(C)CC)cc3)cc2)cc1 (stereo not given)  growth inhibition               -3
9           c1ccc2c(c1)NC(NC1Nc3ccccc3N1)N2  growth inhibition                4
